Molecular target: PPAR-α (Homo sapiens)
Sequence (Q07869 whole entry): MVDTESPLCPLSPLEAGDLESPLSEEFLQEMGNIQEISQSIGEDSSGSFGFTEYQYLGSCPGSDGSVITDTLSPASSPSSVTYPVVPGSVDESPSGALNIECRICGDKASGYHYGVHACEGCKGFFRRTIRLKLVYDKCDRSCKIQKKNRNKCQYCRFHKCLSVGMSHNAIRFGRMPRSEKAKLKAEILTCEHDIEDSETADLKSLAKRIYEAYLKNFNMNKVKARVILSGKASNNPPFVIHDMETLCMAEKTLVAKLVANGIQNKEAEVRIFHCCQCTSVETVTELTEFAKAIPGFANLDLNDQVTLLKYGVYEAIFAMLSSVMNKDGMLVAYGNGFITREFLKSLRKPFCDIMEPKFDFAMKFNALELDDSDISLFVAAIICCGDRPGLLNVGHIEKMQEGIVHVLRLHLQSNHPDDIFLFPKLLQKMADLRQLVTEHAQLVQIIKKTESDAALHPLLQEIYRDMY
quantity.kind: pIC50
# reply with the number alone; pIC50 is -log10 of concentration in mol/L

# input Need pIC50 of `CC(C=CC1=C(C)CCCC1(C)C)=CC=CC(C)=Cc1cc(C=CC=C(C)C=CC2=C(C)CCCC2(C)C)cc[n+]1CCO` , thanks.
# output 4.37

# input I'd like to know its pIC50. The compound in question is CC(/C=C/C=C(C)/C=C/C(=O)O)=C\C=C\C=C(C)\C=C\C=C(C)\C=C\C(=O)O (stereo in doubt) [norbixin, 9’-cis-norbixin]
# output 4.78

---

Consider compounds characterized by their pIC50 with RXR-α (Homo sapiens, UniProt P19793).
Sequence (P19793 whole entry): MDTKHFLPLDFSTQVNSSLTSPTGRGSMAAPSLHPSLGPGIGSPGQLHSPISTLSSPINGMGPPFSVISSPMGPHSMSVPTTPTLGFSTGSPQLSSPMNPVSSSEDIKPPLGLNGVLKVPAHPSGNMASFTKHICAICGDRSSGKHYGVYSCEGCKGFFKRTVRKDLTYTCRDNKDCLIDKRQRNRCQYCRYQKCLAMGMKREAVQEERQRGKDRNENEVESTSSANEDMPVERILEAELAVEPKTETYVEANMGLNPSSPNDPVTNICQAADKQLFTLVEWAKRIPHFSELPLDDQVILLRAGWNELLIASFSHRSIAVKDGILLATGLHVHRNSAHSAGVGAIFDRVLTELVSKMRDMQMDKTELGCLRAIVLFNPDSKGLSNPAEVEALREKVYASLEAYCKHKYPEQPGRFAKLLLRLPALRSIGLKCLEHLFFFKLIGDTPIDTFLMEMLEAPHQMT
Hey, just a heads up that pIC50 is the negative log base 10 of the concentration in molar.

# input # value lookup — system RXR-α (Homo sapiens, UniProt P19793), readout pIC50, item `CC(C=CC1=C(C)CCCC1(C)C)=CC=CC(C)=Cc1cc(C=CC=C(C)C=CC2=C(C)CCCC2(C)C)cc[n+]1CCO`
# output 5.21

# input # returns recorded pIC50 (system: RXR-α (Homo sapiens, UniProt P19793)) for CC(/C=C/C=C(C)/C=C/C(=O)O)=C\C=C\C=C(C)\C=C\C=C(C)\C=C\C(=O)O (stereo in doubt) [norbixin, 9’-cis-norbixin]
# output 4.19

---

Target: PPAR-γ (Homo sapiens, UniProt P37231)
Sequence (P37231 1-505): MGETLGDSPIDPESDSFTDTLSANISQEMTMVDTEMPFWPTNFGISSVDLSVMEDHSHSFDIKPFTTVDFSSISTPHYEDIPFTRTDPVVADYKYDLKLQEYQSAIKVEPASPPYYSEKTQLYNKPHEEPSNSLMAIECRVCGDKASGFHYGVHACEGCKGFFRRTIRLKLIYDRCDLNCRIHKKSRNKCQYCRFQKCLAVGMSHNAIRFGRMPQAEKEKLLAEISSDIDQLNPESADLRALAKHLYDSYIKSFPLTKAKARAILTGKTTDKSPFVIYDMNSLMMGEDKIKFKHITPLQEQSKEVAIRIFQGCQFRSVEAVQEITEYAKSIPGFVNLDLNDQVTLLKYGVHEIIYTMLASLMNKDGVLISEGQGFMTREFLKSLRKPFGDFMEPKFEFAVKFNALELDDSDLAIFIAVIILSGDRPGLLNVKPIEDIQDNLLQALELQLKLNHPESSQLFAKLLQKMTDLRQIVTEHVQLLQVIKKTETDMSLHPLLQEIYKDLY
quantity.kind: pIC50
Reminder that pIC50 means the negative base-10 logarithm of the concentration expressed in mol/L.

# input What does the record list as pIC50 for `CC(C=CC1=C(C)CCCC1(C)C)=CC=CC(C)=Cc1cc(C=CC=C(C)C=CC2=C(C)CCCC2(C)C)cc[n+]1CCO` ?
# output 4.59

# input Using the record for CC(/C=C/C=C(C)/C=C/C(=O)O)=C\C=C\C=C(C)\C=C\C=C(C)\C=C\C(=O)O (stereo in doubt) [norbixin, 9’-cis-norbixin] , report its pIC50.
# output 5.72

---

Tested on: IL-6
Experiment: IL-6 mRNA expression by quantitative RT-PCR in porcine RPE cells
Assay type: cell-based
Settings: NBX 20 μM with A2E 30 μM; MK886 1 μM, GSK3787 1 μM, T007907 10 μM, HX531 5 μM with A2E 20 μM
// boundary case: reduction of IL-6 mRNA expression induced by A2E equal to 70% maps to condition not met; strictly smaller maps to condition met

# input Here's an entry: `CN1c2ccc([N+](=O)[O-])cc2N=C(c2ccc(C(=O)O)cc2)c2cc3c(cc21)C(C)(C)CCC3(C)C` . Is its reduction of IL-6 mRNA expression induced by A2E below 70%?
# output condition not met

# input Please determine if `O=C(NCCS(=O)(=O)c1ccc(C(F)(F)F)cn1)c1ccc(Cl)cc1` is below 70% in terms of reduction of IL-6 mRNA expression induced by A2E.
# output condition met

# input Criterion: reduction of IL-6 mRNA expression induced by A2E strictly below 70%. Is it met by `CC(C)c1ccc2c(c1)c(SC(C)(C)C)c(CC(C)(C)C(=O)O)n2Cc1ccc(Cl)cc1` ?
# output condition met

# input Does CC(/C=C/C=C(C)/C=C/C(=O)O)=C\C=C\C=C(C)\C=C\C=C(C)\C=C\C(=O)O (stereo in doubt) [norbixin, 9’-cis-norbixin] have reduction of IL-6 mRNA expression induced by A2E strictly under 70%?
# output condition not met
